Target: T1, CRBN, Q96SW2;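 note: pooled lentiviral library of zinc finger degron-EGFP fusions in mCherry-positive Jurkat cells, FACS-sorted after compound exposure, with degron abundance counted by next-generation sequencing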
T1 chain: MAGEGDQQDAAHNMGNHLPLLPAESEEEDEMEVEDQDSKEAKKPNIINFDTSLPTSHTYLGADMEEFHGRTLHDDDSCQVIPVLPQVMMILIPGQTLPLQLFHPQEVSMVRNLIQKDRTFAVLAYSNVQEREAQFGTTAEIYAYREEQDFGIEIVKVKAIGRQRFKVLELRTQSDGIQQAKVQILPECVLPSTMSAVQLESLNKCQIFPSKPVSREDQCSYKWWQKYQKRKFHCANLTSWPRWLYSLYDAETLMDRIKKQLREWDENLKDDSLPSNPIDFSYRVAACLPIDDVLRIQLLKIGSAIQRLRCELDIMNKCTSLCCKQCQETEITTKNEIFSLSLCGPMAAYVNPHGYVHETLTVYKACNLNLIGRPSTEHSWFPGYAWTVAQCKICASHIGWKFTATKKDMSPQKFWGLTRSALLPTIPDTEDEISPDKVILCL
Test: log2 fold change of degron read counts, EGFP-low vs EGFP+ sorted cells (limma voom), compound-induced degradation; higher = more compound-induced degradation of the degron-EGFP fusion; degrons are variants of IKZF1/3 zinc finger 2; compound dose not given here
Conditions: Jurkat; 18 h; compound: compound 33 (diphenyl IMiD analogue)
Over roughly 8,300 sequences, “log2 fold change of degron read counts, EGFP-low vs EGFP+ sorted cells (limma voom), compound-induced degradation” has its median near -1.1; the highest 2% begin near 3.2. The sample as a whole holds a higher share of the highest values than the screen did.
Use 0.7 as the dividing line for log2 fold change of degron read counts, with the line itself on the yes (1) side and lower values as no (0).

Solved entries:
INSERT INTO assay_data (seq_text, answer_label) VALUES
  ('FVCPVCGAGFTQKGNLLRHIKL [46F_47V_49P_50V_52G_53A_54G_55F_67L_, Q9UKT9]', 'yes (1)'),
  ('LECPICGFVCTQKGNLLRHIKL [46L_47E_49P_50I_52G_53F_54V_55C_67L_, Q9UKT9]', 'yes (1)'),
  ('FVCEICGHWFTQKGNLLRHIKL [46F_47V_49E_50I_52G_53H_54W_55F_67L_, Q9UKT9]', 'no (0)'),
  ('FFCPVCGAGFTQKGNLLRHIKL [46F_47F_49P_50V_52G_53A_54G_55F_67L_, Q9UKT9]', 'yes (1)');

// inclusive: log2 fold change of degron read counts at least 0.7? input: FACPVCGAGFTQKGNLLRHIKL [46F_47A_49P_50V_52G_53A_54G_55F_67L_, Q9UKT9]
no (0)

Could you tell me if the measured log2 fold change of degron read counts of FRCPICGHKFTQKGNLLRHIKL [46F_47R_49P_50I_52G_53H_54K_55F_67L_, Q9UKT9] reaches 0.7 or more?
no (0)

Determine whether measured log2 fold change of degron read counts meets or exceeds 0.7 for FRCPVCGAGFTQKGNLLRHIKL [46F_47R_49P_50V_52G_53A_54G_55F_67L_, Q9UKT9]
yes (1)

Data origin: the supplement of paper PMC12645437
